Taken from PubChem BioAssay (EPA / NIEHS).

# TEST DESCRIPTION: Tanguay_ZF_120hpf_PE_legacy: (Legacy) Oregon State University Tanguay Lab 120 Hour Post-fertilization zebrafish Assay for Pericardial Edema (AID 2283640)
Inconclusive results are not listed. Activity calls are given as the source filed them. How the source made its calls: active means hit-call score of the fitted dose curve at least 0.9, where 1 is the maximum; inconclusive means response in the unintended direction; inactive means score below 0.9.
Respond only with the outcome that fits, drawn from active, inactive

For orientation, consider the following solved cases.
Nc1ccc(Nc2ccccc2)cc1: active
CN(C)c1ccc(Cc2ccc(N(C)C)cc2)cc1: inactive
CCCN(C1CCN(C(=O)C2CCNCC2)CC1)[C@@H]1CCc2ccc(OC)cc2C1: inactive

Hi, do you know how "COCCOCCOCCOC" came out in this test?
inactive

Hi, do you know how "C=CCCCCCCCCC(=O)O" came out in this test?
inactive

Hi, do you know how "Nc1nc2ncc(CNc3ccc(C(=O)N[C@@H](CCC(=O)O)C(=O)O)cc3)nc2c(=O)[nH]1" came out in this test?
inactive

Hi, do you know how "CC[C@H](C)C(=O)O[C@H]1C[C@@H](C)C=C2C=C[C@H](C)[C@H](CC[C@@H]3C[C@@H](O)CC(=O)O3)[C@H]21" came out in this test?
inactive

Hi, do you know how O=C1OC(=O)C2C3C=CC(C3)C12 (stereo unspecified) came out in this test?
inactive

Hi, do you know how "CC(=O)c1ccc2c(c1)[C@H](NC(=O)c1ccc(F)cc1)[C@@H](O)C(C)(C)O2" came out in this test?
inactive

Hi, do you know how "O=C(CCCCCCCCc1cccnc1)N1CCC(C=C(c2ccccc2)c2ccccc2)CC1" came out in this test?
inactive

Hi, do you know how "CCOCCO" came out in this test?
inactive

###

# TESTED SYSTEM: Cytochrome P450 3A4 (Homo sapiens) (UniProt P08684)
# Sequence (P08684 whole entry, looked up): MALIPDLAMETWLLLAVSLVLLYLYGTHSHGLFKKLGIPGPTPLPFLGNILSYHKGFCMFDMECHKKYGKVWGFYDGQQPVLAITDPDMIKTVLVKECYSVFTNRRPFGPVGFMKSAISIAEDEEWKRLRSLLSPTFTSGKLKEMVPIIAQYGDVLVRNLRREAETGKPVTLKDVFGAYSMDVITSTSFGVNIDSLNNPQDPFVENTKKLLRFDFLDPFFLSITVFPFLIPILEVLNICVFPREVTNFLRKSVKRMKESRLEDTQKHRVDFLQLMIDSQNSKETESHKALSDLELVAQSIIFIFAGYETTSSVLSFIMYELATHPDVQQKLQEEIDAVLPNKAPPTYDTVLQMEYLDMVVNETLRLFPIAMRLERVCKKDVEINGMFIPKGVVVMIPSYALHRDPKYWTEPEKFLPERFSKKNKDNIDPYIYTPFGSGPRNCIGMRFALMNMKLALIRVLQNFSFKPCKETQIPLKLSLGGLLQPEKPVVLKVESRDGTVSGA
# TEST DESCRIPTION: NVS_ADME_hCYP3A4: NovaScreen (NVS) CYP450-related Enzyme Activity (ADME) Assay for human CYP3A4 (AID 2283110)
# Procedure: NVS_ADME_hCYP3A4 is a biochemical, single-readout assay that uses extracted gene-proteins from insect cells in a cell-free assay. Measurements were taken 0.33 hour after chemical dosing in a 96-well plate.NVS_ADME_hCYP3A4 is one of one assay component(s) measured or calculated from the NVS_ADME_hCYP3A4 assay. […] This assay endpoint, NVS_ADME_hCYP3A4, was analyzed in the positive analysis fitting direction relative to Acetonitrile as the negative control and baseline of activity. […]
Results filed as inconclusive are left out. The source made the active and inactive calls. Rule for the calls: active = hit-call score of the fitted dose curve at least 0.9, where 1 is the maximum; inconclusive = response in the unintended direction; inactive = score below 0.9.
QUANTITY MEASURED: AC50

Some compounds with recorded AC50:
CCOC(=O)COc1ccc2c(c1)CC(NCC(O)c1cccc(Cl)c1)CC2 (stereo not given): inactive
CC(=O)OCCC(C)C: inactive
CCN(C(=O)c1cc(C)cc(OC[C@H](C)Nc2ccncc2)c1)C(C)C: 2.87 µM (active)
CC(C)c1cccc(C(C)C)c1N1C(=O)c2ccc(O)cc2C1=O: 13.6 µM (active)

Bench note: what AC50 did CCOC(=O)c1ccc(C2CCC(NC[C@H](O)COc3ccc(O)c(NS(C)(=O)=O)c3)CC2)cc1 (stereo not given in full) show?
inactive

###

# Read-out: Peroxisomal acyl-coenzyme A oxidase 1 (ACOX1) gene, ACOX1 (gene 51)
# TEST DESCRIPTION: LTEA_HepaRG_ACOX1: Life Technologies and Expression Analysis (LTEA) Assay for Peroxisomal acyl-coenzyme A oxidase 1 (ACOX1) gene using HepaRG (AID 2283467)
# SETTINGS: mRNA level, 48 h; actives raise or lower the signal
Activity calls are given as the source filed them. The calls were made as follows: active = hit-call score of the fitted dose curve at least 0.9, where 1 is the maximum; inactive = score below 0.9.
Respond only with the outcome that fits, drawn from active, inactive

Hi, do you know how "CC(C)CCCCCCCOC(=O)CCCCC(=O)OCCCCCCCC(C)C" came out in this test?
inactive

Hi, do you know how "O=C(OC[C@H]1O[C@@H](OC(=O)c2cc(O)c(O)c(OC(=O)c3cc(O)c(O)c(O)c3)c2)[C@H](OC(=O)c2cc(O)c(O)c(OC(=O)c3cc(O)c(O)c(O)c3)c2)[C@@H](OC(=O)c2cc(O)c(O)c(OC(=O)c3cc(O)c(O)c(O)c3)c2)[C@@H]1OC(=O)c1cc(O)c(O)c(OC(=O)c2cc(O)c(O)c(O)c2)c1)c1cc(O)c(O)c(OC(=O)c2cc(O)c(O)c(O)c2)c1" came out in this test?
inactive

Hi, do you know how Fc1ccccc1[C@@H](F)COC1CCC(Nc2ncnc3[nH]ncc23)CC1 (some centres undefined) came out in this test?
active

Hi, do you know how "Clc1nc(Cl)c(Cl)c(Cl)c1Cl" came out in this test?
inactive

Hi, do you know how "COc1cccc(-c2ccc(/C=C\CN3CCCCCC3)cc2Cl)c1" came out in this test?
active

###

# Read-out: Alkaline Phosphatase, Placental (ALPP) gene, ALPP (gene 250)
# TEST DESCRIPTION: LTEA_HepaRG_ALPP: Life Technologies and Expression Analysis (LTEA) Assay for Alkaline Phosphatase, Placental (ALPP) gene using HepaRG (AID 2283468)
# SETTINGS: mRNA level, 48 h; actives raise or lower the signal
# Protocol: LTEA_HepaRG is a cell based, multiplexed-readout assay that uses HepaRG, a human liver cell line, with measurements taken at 48 hours after chemical dosing on a 96-well plate.LTEA_HepaRG_ALPP is one of 102 assay component(s) measured in the LTEA HepaRG cell culture assay. It is a marker of Cell proliferation, survival, death.Data from the assay component LTEA_HepaRG_ALPP was analyzed into 1 endpoint. […]
Calls of active or inactive are those of the source. How the source made its calls: active means hit-call score of the fitted dose curve at least 0.9, where 1 is the maximum; inactive means score below 0.9.
Respond only with the outcome that fits, drawn from active, inactive

O=C(O)CC(O)C(=O)O (stereo not drawn): inactive
CNS(=O)(=O)c1cc(C(=O)N2CCC(CCN3C4CCC3CC(n3c(C)nc5ccccc53)C4)(c3cccc(F)c3)CC2)c(Cl)cc1F (stereo not drawn): active
CC(C)=CCCC(C)=CC=O: inactive
Cn1c(=O)c2c(ncn2C)n(C)c1=O: inactive
CCOC(=O)CC(CC(=O)OCC)(OC(C)=O)C(=O)OCC: inactive
COC(=O)c1ccccc1O: inactive
COc1ccc2sc(C(=O)Nc3nnn[nH]3)c(OC(C)C)c2c1: inactive
O=C(O)c1cccc(N(Cc2cccnc2)c2ccc(OC(F)F)c(OC(F)F)c2)c1: active
Nc1nc2ncc(CNc3ccc(C(=O)N[C@@H](CCC(=O)O)C(=O)O)cc3)nc2c(=O)[nH]1: inactive
COc1ccc(-n2nc(C(F)F)cc2-c2ccc(S(C)=O)cc2)cc1 (stereo not drawn): inactive

Hi, do you know how "COCCOCCOCCOC" came out in this test?
inactive

Hi, do you know how "Clc1nc(Cl)c(Cl)c(Cl)c1Cl" came out in this test?
inactive

Hi, do you know how "CCCCCCCCCCCCCCCO" came out in this test?
inactive

###

# Read-out: Matrix Metallopeptidase 1 (MMP1), MMP1 (gene 4312)
# TEST DESCRIPTION: BSK_hDFCGF_MMP1: BioMAP Diversity Plus: hDFCGF Assay for Matrix Metallopeptidase 1 (MMP1) Biomarker Activity (AID 2283064)
# SETTINGS: primary human foreskin fibroblasts; actives raise or lower the signal
Calls of active or inactive are those of the source. The calls were made as follows: active = hit-call score of the fitted dose curve at least 0.9, where 1 is the maximum; inactive = score below 0.9.
QUANTITY MEASURED: outcome

O=C(O)CC(O)C(=O)O (stereo not drawn): inactive
CCNc1ccccc1: inactive
CCCCCCCCO: inactive

###

# TEST DESCRIPTION: ATG_M_61_CIS: Attagene CIS-FACTORIAL HepG2 Assay for M61 Transcription Factor (Internal Marker) (AID 2282937)
# SETTINGS: HepG2 Attagene CIS-FACTORIAL M61 internal marker reporter; actives raise or lower the signal
The source made the active and inactive calls. The calls were made as follows: active = hit-call score of the fitted dose curve at least 0.9, where 1 is the maximum; inactive = score below 0.9.
QUANTITY MEASURED: outcome

Some compounds with recorded outcome:
CC[C@H]1OC(=O)[C@H](C)[C@@H](O[C@H]2C[C@@](C)(OC)[C@@H](O)[C@H](C)O2)[C@H](C)[C@@H](O[C@@H]2O[C@H](C)C[C@H](N(C)C)[C@H]2O)[C@](C)(O)C[C@@H](C)C(=O)[C@H](C)[C@@H](O)[C@]1(C)O: inactive
C[C@](N)(Cc1ccc(O)c(O)c1)C(=O)O: inactive
COc1ccc(-n2nc(C(F)F)cc2-c2ccc(S(C)=O)cc2)cc1 (configuration not stated): inactive
O=C(OC[C@H]1O[C@@H](OC(=O)c2cc(O)c(O)c(OC(=O)c3cc(O)c(O)c(O)c3)c2)[C@H](OC(=O)c2cc(O)c(O)c(OC(=O)c3cc(O)c(O)c(O)c3)c2)[C@@H](OC(=O)c2cc(O)c(O)c(OC(=O)c3cc(O)c(O)c(O)c3)c2)[C@@H]1OC(=O)c1cc(O)c(O)c(OC(=O)c2cc(O)c(O)c(O)c2)c1)c1cc(O)c(O)c(OC(=O)c2cc(O)c(O)c(O)c2)c1: inactive
Cn1cnc([N+](=O)[O-])c1Sc1ncnc2nc[nH]c12: inactive
CNCc1ccc(NC(=O)c2c[nH]c3c2C(=O)CCC3)cc1: inactive

Switching to the query record.
Bench note: what outcome did "Cn1c(=O)c2c(ncn2C)n(C)c1=O" show?
inactive
